Molecular target: T1, Peptide C (human PAR-2), N-terminal biotinylated (Human)
T1 construct: also called Peptide C N-Term
T1 peptide: Biotin-GGGGSSLIGKV
Experiment: SPR, peptide immobilized
Where no end group is shown, it is not given here. The star is where a group is joined. Biotin = O=C1N[C@H]2[C@H](CS[C@H]2CCCCC(=O)*)N1

Binder: H4H588N (antibody, human IgG4, V domains shown, also called H2M588N variable regions) VH: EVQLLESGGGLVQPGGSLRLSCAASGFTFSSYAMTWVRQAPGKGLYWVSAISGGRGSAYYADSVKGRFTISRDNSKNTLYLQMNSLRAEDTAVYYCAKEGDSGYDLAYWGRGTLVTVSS VL: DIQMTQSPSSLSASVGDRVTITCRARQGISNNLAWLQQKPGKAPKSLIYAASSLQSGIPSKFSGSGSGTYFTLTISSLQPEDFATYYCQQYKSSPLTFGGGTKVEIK
binding result: no binding

Binder: H4H579P (antibody, human IgG4, V domains shown, also called H1H579P variable regions) VH: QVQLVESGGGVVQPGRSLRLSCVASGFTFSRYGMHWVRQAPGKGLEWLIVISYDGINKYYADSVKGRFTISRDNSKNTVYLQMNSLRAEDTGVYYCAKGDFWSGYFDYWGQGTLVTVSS VL: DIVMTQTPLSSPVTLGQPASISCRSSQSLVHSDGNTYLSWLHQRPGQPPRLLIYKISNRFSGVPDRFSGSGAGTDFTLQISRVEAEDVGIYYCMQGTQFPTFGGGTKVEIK
binding result: no binding

Binder: H4H583P (antibody, human IgG4, V domains shown, also called H1H583P variable regions) VH: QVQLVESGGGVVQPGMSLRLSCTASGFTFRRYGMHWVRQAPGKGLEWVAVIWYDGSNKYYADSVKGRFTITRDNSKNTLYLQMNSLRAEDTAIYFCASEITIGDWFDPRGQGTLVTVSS VL: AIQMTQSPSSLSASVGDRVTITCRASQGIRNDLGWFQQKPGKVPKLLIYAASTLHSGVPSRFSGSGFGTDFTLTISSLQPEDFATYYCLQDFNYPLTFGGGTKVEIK
binding result: no binding
